Tested on: CASKI
Protocol summary: Primary qHTS to identify gynecologic anti-cancer compounds using libraries of approved drugs and bioactive compounds (AID 1345084); further: nearly all actives have a fitted effect of over 55% in size; on activity change, negative = cytotoxicity: on the % scale 0 is the no-effect control and ±100 the full control effect
Particulars: Gynecologic cancer cell panel viability, ATPlite luminescence, 48 h; series mostly up to 57.5 µM
Results filed as inconclusive are left out. Active and inactive are the calls of the source. The call rests on the fitted dose curve; in most records, active means well fitted cell-killing curve with a large enough effect; inconclusive means small, poorly fitted or top-dose-only effect, or effect the other way; inactive means flat fitted curve, though single readings scatter.

{"Compound": "CCC(=O)N1CCOc2c(cc(-c3ccc(OC)c(OC)c3)cc2OC[C@H]2CCCN(C)C2)C1", "activity change, negative = cytotoxicity": "inactive"}
{"Compound": "O=C(Nc1ccccc1)N1CCC(Cc2cnc3ccccc3c2)CC1", "activity change, negative = cytotoxicity": "inactive"}
{"Compound": "O=C1COc2nccc(-c3ccccc3F)c2CN1Cc1cc(C(F)(F)F)cc(C(F)(F)F)c1", "activity change, negative = cytotoxicity": "inactive"}
{"Compound": "CN1CCC(c2cn(C)c3ccc(OS(=O)(=O)c4c(F)cccc4F)cc23)CC1", "activity change, negative = cytotoxicity": "inactive"}
{"Compound": "CC(=O)O[C@@H]1[C@H](O[C@@H]2O[C@@H](CO)[C@H](O)[C@H]2O)[C@@H](O[C@@H]2O[C@@H](C)[C@H](O[C@@H]3OC[C@@H](O)[C@H](O)[C@H]3O)[C@@H](O)[C@H]2O)[C@H](OC(=O)[C@]23CCC(C)(C)C[C@H]2C2=CCC4[C@@]5(C)CC[C@H](O[C@@H]6O[C@H](C(=O)O)[C@@H](O)[C@H](O)[C@H]6O[C@@H]6O[C@H](CO)[C@H](O)[C@H](O)[C@H]6O)[C@@](C)(C=O)C5CC[C@@]4(C)[C@]2(C)C[C@H]3O)O[C@@H]1C (some centres not stated)", "activity change, negative = cytotoxicity": "-9.38% [at 6.55 µM] (inactive)"}
{"Compound": "COC(=O)CC(O)CC(O)/C=C/c1c(C)ccc2c1C(OC(C)=O)CC(C)C2 (configuration not stated)", "activity change, negative = cytotoxicity": "inactive"}
{"Compound": "CC1CCCC[C@H]2C(=O)C=C[C@H](O)[C@@H]2CC(=O)O1 (some centres not stated)", "activity change, negative = cytotoxicity": "inactive"}

###

Test system: CAOV3
Protocol summary: Primary qHTS to identify gynecologic anti-cancer compounds using libraries of approved drugs and bioactive compounds (AID 1345084); further: nearly all actives have a fitted effect of over 55% in size; further: potency means the concentration at half of the fitted maximal effect
Particulars: Gynecologic cancer cell panel viability, ATPlite luminescence, 48 h; series mostly up to 57.5 µM
Results filed as inconclusive are left out. The source made the active and inactive calls. Calls follow the shape of the dose curve; as a rule, active = well fitted cell-killing curve with a large enough effect; inconclusive = small, poorly fitted or top-dose-only effect, or effect the other way; inactive = flat fitted curve, though single readings scatter.

{"Smiles text": "Clc1cccc(COc2cncc(N3CCNCC3)n2)c1", "Potency": "inactive"}
{"Smiles text": "Cc1[nH]c2ccc(F)cc2c1-c1nc2c3cccnc3c3ncccc3c2[nH]1", "Potency": "3.98 µM (active)"}
{"Smiles text": "CNc1nc(NCc2ccc(NS(C)(=O)=O)cc2Cl)cc(-c2ccccn2)n1", "Potency": "inactive"}
{"Smiles text": "CC[C@H](C(=O)Nc1ccccc1N1CCCC1)c1ccccc1", "Potency": "inactive"}
{"Smiles text": "CNc1cc2[nH]c(=O)n(-c3ccc(NC(=O)NS(=O)(=O)c4ccc(Cl)s4)cc3)c(=O)c2cc1F", "Potency": "inactive"}

###

Tested on: HEK293
Protocol summary: Cytotoxic Profiling of Annotated Libraries Using Quantitative High-Throughput Screening (AID 1296008); further: potency means the concentration at half of the fitted maximal effect; nearly all actives have a fitted effect of over 60% in size
Particulars: Five cell lines viability, CellTiter-Glo ATP luminescence, 48-72 h
Results filed as inconclusive are left out. Active and inactive are the calls of the source. The call rests on the fitted dose curve; in most records, active means well fitted inhibition curve with a large enough effect; inconclusive means small, poorly fitted or top-dose-only effect; inactive means flat fitted curve, though single readings scatter.

{"Molecule": "Cc1[nH]c(/C=C2\\C(=O)Nc3ccc(F)cc32)c(C)c1C(=O)NCCN1CCCC1", "Target or test system": "HEK293", "Potency": "14.6 µM (active)"}
{"Molecule": "COc1cc(OC)c(NC(=O)c2ccc(Cc3cc4c(cc3C)C(C)(C)CCC4(C)C)o2)c(OC)c1", "Target or test system": "HEK293", "Potency": "20.6 µM (active)"}
{"Molecule": "O=C1Nc2nc(-c3c(O)cccc3OCC3CC3)cc([C@@H]3CCCNC3)c2CO1", "Target or test system": "HEK293", "Potency": "20.6 µM (active)"}
{"Molecule": "Cn1cc(-c2cnn3c(N)c(Br)c(C4CCCNC4)nc23)cn1 (stereo unspecified)", "Target or test system": "HEK293", "Potency": "1.03 µM (active)"}
{"Molecule": "COc1cc(Br)c(S(=O)(=O)Nc2ccc(Cl)c(O[C@@H]3CCN(C)C3)c2)cc1OC", "Target or test system": "HEK293", "Potency": "7.31 µM (active)"}
{"Molecule": "Cc1ccc(NC(=O)C(C)C)cc1C1CCN(Cc2ccc(Oc3ccc(F)c(F)c3)cc2)CC1", "Target or test system": "HEK293", "Potency": "13 µM (active)"}
{"Molecule": "COc1ccc(-c2ccc3c(N4CCOCC4C)nc(N4CCOCC4C)nc3n2)cc1CO (stereo unspecified)", "Target or test system": "HEK293", "Potency": "0.146 µM (active)"}
{"Molecule": "N#Cc1cc(-c2ccnc(Nc3ccc(N4CCOCC4)cc3)n2)ccc1OC1CCOCC1", "Target or test system": "HEK293", "Potency": "7.31 µM (active)"}
{"Molecule": "FC(F)(F)c1ccc(/C=C/c2nc(COc3ccc(CCCCn4ccnn4)cc3)co2)cc1", "Target or test system": "HEK293", "Potency": "0.0291 µM (active)"}
{"Molecule": "CC(C)CCNC(=O)c1ccc2c(c1)nc(Nc1n[nH]c3ccc(-c4ccccc4OC(F)(F)F)cc13)n2C1CCC(O)CC1 (stereo unspecified)", "Target or test system": "HEK293", "Potency": "9.2 µM (active)"}
{"Molecule": "Cc1ccc(C)c(-c2cc(C(F)(F)F)nn2-c2ccc(S(N)(=O)=O)cc2)c1", "Target or test system": "HEK293", "Potency": "5.17 µM (active)"}
{"Molecule": "Cc1sc2c(c1C)C(c1ccc(Cl)cc1)=N[C@@H](CC(=O)Nc1ccc(OCCOCCOCCOCCNc3cccc4c3C(=O)N(C3CCC(=O)NC3=O)C4=O)cc1)c1nnc(C)n1-2 (stereo partly specified)", "Target or test system": "HEK293", "Potency": "0.0447 µM (active)"}
{"Molecule": "Cn1ncc(Cl)c1-c1cc(C(=O)N[C@H](CN)Cc2ccc(F)c(F)c2)oc1Cl", "Target or test system": "HEK293", "Potency": "0.366 µM (active)"}
{"Molecule": "COc1cc(NC(=O)c2cccc(-n3cc(NC(=O)Nc4cccc(C)c4)cn3)c2)cc(OC)c1OC", "Target or test system": "HEK293", "Potency": "9.2 µM (active)"}
{"Molecule": "COc1cc([C@H]2O[C@H](c3cc(OC)c4c(c3)OCO4)[C@H](C)[C@H]2C)cc(OC)c1OC", "Target or test system": "HEK293", "Potency": "0.893 µM (active)"}
{"Molecule": "NC(=O)c1cnc(N[C@@H]2CCCC[C@@H]2N)nc1Nc1cccc(-n2nccn2)c1", "Target or test system": "HEK293", "Potency": "11.7 µM (active)"}

###

System: PA-1
Protocol summary: Primary qHTS to identify gynecologic anti-cancer compounds using libraries of approved drugs and bioactive compounds (AID 1345084); further: nearly all actives have a fitted effect of over 55% in size
Particulars: Gynecologic cancer cell panel viability, ATPlite luminescence, 48 h; series mostly up to 57.5 µM
Results filed as inconclusive are left out. The source made the active and inactive calls. Calls follow the shape of the dose curve; as a rule, active = well fitted cell-killing curve with a large enough effect; inconclusive = small, poorly fitted or top-dose-only effect, or effect the other way; inactive = flat fitted curve, though single readings scatter.
Possible outcomes: 1 (yes) = active, 0 (no) = inactive

{"Compound": "CC1(C)CCC(C)(C)c2cc(C#Cc3ccc(C(=O)O)cc3)ccc21", "Category label": "0 (no)"}
{"Compound": "Cc1ccc(OC[C@H](O)[C@H](C)NC(C)C)c2c1CCC2", "Category label": "0 (no)"}
{"Compound": "Cc1ccc(C(C)C)c(O[C@@H]2O[C@H](CO)[C@@H](O)[C@H](O)[C@H]2O)c1", "Category label": "0 (no)"}
{"Compound": "C=C1C(=O)O[C@@H]2C=C(COC(C)=O)CC/C=C(\\CO)CC[C@@H]12", "Category label": "0 (no)"}
{"Compound": "COC1=CC(=O)C=C(C)C12Oc1c(Cl)c(OC)cc(OC)c1C2=O (stereo unspecified)", "Category label": "0 (no)"}
{"Compound": "Cc1cn(CCN2CCN(c3ccccc3-c3cc(C#N)cc(C(=O)NCCCN4CCCC4)c3)CC2)c2ccccc12", "Category label": "0 (no)"}
{"Compound": "C=CS(=O)(=O)NC1CCN(C(=O)CNc2cc(I)c(Cl)cc2OC)CC1", "Category label": "1 (yes)"}
{"Compound": "C=C[C@](C)(O)CC[C@H]1C(C)=CC(=O)[C@H]2C(C)(C)CCC[C@]12C", "Category label": "0 (no)"}
{"Compound": "CNC1CN(c2ccc3c(=O)c(C(=O)O)cn(-c4nccs4)c3n2)CC1OC (stereo unspecified)", "Category label": "1 (yes)"}
{"Compound": "C/C=C(\\C)C(=O)O[C@@H]1[C@@H](C)[C@]2(O)[C@@H]3C=C(C)C(=O)[C@H]3CC(CO)=C[C@H]2C2C(C)(C)[C@@]21OC(=O)C(C)CC (stereo partly specified)", "Category label": "0 (no)"}
{"Compound": "CN(C)c1ccc(NC(=O)NS(=O)(=O)c2ccc(Cl)cc2)cc1", "Category label": "0 (no)"}
{"Compound": "CC1CCC/C=C/C(=O)c2c(O)cc(O)cc2CC(=O)O1 (stereo unspecified)", "Category label": "1 (yes)"}
{"Compound": "CCC(C)CC(=O)OC1C(=O)C(CO)=CC(O)C1C(C)C (stereo unspecified)", "Category label": "1 (yes)"}
{"Compound": "O=C(Nc1ccc(C(F)(F)F)cn1)N1CCN(c2ncccc2C(F)(F)F)CC1", "Category label": "0 (no)"}
{"Compound": "N#CC(CCCN1CCC(O)(c2ccc(Cl)cc2)CC1)(c1ccccc1)c1ccccc1", "Category label": "0 (no)"}
{"Compound": "CC(C)c1ccccc1OC(=O)NCCc1ccc2ccccc2c1", "Category label": "0 (no)"}
{"Compound": "CCC(C)CNCC(=O)N1CCC2SC=CC2C1COc1cccc(C)c1 (stereo unspecified)", "Category label": "0 (no)"}
{"Compound": "CC(=O)c1ccc2c(c1)[C@H](NC(=O)c1ccc(F)c(Cl)c1)[C@H](O)C(C)(C)O2", "Category label": "0 (no)"}
{"Compound": "CCCC(CCC)C(=O)NCc1ccc2c(cnn2-c2ccccc2OC)c1", "Category label": "0 (no)"}
{"Compound": "CC(C)n1nc(C#Cc2ccccc2)c2c(N)ncnc21", "Category label": "0 (no)"}
{"Compound": "O=C(c1ccccn1)N(Cc1cccs1)C1(C(=O)NC2CCCCC2)CCCCC1", "Category label": "0 (no)"}

Source: PubChem BioAssay (NCATS)
